test: M. tuberculosis growth inhibition, HTS (AID 449762);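 also: bacterial growth assessed after seven days of incubation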; conditions: M. tuberculosis H37Rv growth inhibition, 7H9 media; at 25 µM; active compounds read high
About 1,900 (0.58%) of roughly 330,000 compounds were called active. Not shown: some 4% with an inconclusive outcome. Not all results are given here. Potency and affinity values are given separately.
inhibition listing for selected molecules.

>  <record smiles>
Cc1cc2nncn2c(Cc2ccccc2)n1

>  <inhibition>
-5.06% (inactive)

$$$$

QUERY: Consider the molecule O=C(O)c1cc(-c2ccccc2)nc2ccccc12 and give its measured inhibition.
RESULT: -1.59% (inactive)

QUERY: Same again, this time with Oc1ccccc1N=N/C(=N/Nc1ccccc1O)c1ccccc1
RESULT: 10.4% (inactive)

====

assay: M. tuberculosis growth inhibition, HTS (AID 449762);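 also: bacterial growth assessed after seven days of incubation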; settings: M. tuberculosis H37Rv growth inhibition, 7H9 media; at 25 µM; active compounds read high
In all, about 330,000 compounds went through this assay and about 1,900 (0.58%) were called active. About 4% were inconclusive and are not listed. These entries were drawn from the full list. Entries with a potency or affinity are not part of this list.
inhibition listing for selected compounds.
Could you give me the number in %? Just the number is fine.

>  <compound>
COc1ccccc1-n1c(O)c(C=NCCN2CCNCC2)c(=O)[nH]c1=O

>  <display unit>
%

>  <endpoint value>
-7.53

$$$$
>  <compound>
CCCCN1C(=O)/C(=C2/C=CC=CN2C)SC1=S

>  <display unit>
%

>  <endpoint value>
-5.48

$$$$
>  <compound>
CCOc1ccc(-c2csc(Cn3c(CN4CCN(C)CC4)nc4ccccc4c3=O)n2)cc1

>  <display unit>
%

>  <endpoint value>
8.95

$$$$
>  <compound>
COc1ccc(-c2nc(CN3CCCCC3c3cccnc3)c(C)o2)c(F)c1 (configuration not stated)

>  <display unit>
%

>  <endpoint value>
3.24

$$$$
>  <compound>
Cc1ccc(NC(=O)COC(=O)CCc2ccc(S(=O)(=O)N3CCOCC3)cc2)cc1F

>  <display unit>
%

>  <endpoint value>
2.39

$$$$

QUERY: Consider the compound O=C(O)Cn1c(=O)c(-c2ccccc2)nc2ccccc21 and give its measured inhibition.
RESULT: -12.6

QUERY: Same again, this time with CCc1ccc2[nH]c(=O)c(CN(CCCN3CCOCC3)C(=O)Nc3ccccc3)cc2c1
RESULT: 4.92

QUERY: Same again, this time with Cc1ccc(N2CC(C(=O)Nc3cccc(C(=O)NC4CC4)c3)CC2=O)cc1 (configuration not stated)
RESULT: -1.62

QUERY: Same again, this time with CCCCC(CC)COC(=O)CCCCC(=O)OCC(CC)CCCC (configuration not stated)
RESULT: 12.3

QUERY: Same again, this time with COCC(=O)Nc1cccc(-c2ccc3nncn3n2)c1
RESULT: 0.62

QUERY: Same again, this time with CC(C)CCNC(=O)C1CCCN(S(=O)(=O)c2ccc(-n3cnnn3)cc2)C1 (configuration not stated)
RESULT: 1.26

QUERY: Same again, this time with CSc1ccc(C(=O)C2CCCN(C(=O)c3ccc4c(c3)OCO4)C2)cc1 (configuration not stated)
RESULT: 1.02

QUERY: Same again, this time with Cn1cc(C(=O)c2ccccc2C(=O)O)cc1C(=O)C(Cl)(Cl)Cl
RESULT: 1.33

QUERY: Same again, this time with O=C1C(C=NCCCN2CCCC2=O)=C(O)c2ccccc21
RESULT: -5.89

QUERY: Same again, this time with Cc1ccc2[nH]c(=O)c(CN(CCCN3CCOCC3)C(=O)Nc3cccc(Cl)c3)cc2c1
RESULT: 10.9

QUERY: Same again, this time with CCC(CC)C(=O)Nc1cc(C(=O)NCCc2ccccc2)ccc1Cl
RESULT: 1.26

QUERY: Same again, this time with CN1C(=O)N(C)C2(c3ccccc3)Nn3c(s/c(=C/c4ccccc4F)c3=O)=NC12c1ccccc1 (configuration not stated)
RESULT: 1.37

QUERY: Same again, this time with CCOC1OC(=O)C(Cl)=C1Nc1cc(C)ccc1C (configuration not stated)
RESULT: -3.33

QUERY: Same again, this time with N#Cc1ccc(C(=O)NCCCSc2ccccc2)cc1
RESULT: -3.48

QUERY: Same again, this time with CN(CC(=O)Nc1c(Cl)cccc1Cl)C(=O)Cc1cccs1
RESULT: -16.5

QUERY: Same again, this time with On1c(-c2ccccc2)nc2ccccc21
RESULT: 9.54

QUERY: Same again, this time with COc1ccccc1C(=O)NC(CCSC)C(=O)OCC(=O)N1CCCC1=O (configuration not stated)
RESULT: -5.17

====

experiment: M. tuberculosis growth inhibition, HTS (AID 449762);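 also: bacterial growth assessed after seven days of incubation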; conditions: M. tuberculosis H37Rv growth inhibition, 7H9 media; at 25 µM; active compounds read high
Hit rate of the full screen: of about 330,000 compounds, about 1,900 (0.58%) were called active. Not shown: some 4% with an inconclusive outcome. These entries were drawn from the full list. Entries with a potency or affinity are not part of this list.
inhibition listing for selected molecules.
Could you give me the number in %? Just the number is fine.

Here's what some known entries look like.
>  <molecule>
COc1ccc(C2=NCCn3nc4cc(OC)ccc4c32)cc1

>  <readout type>
inhibition

>  <display unit>
%

>  <endpoint value>
1.06

$$$$
>  <molecule>
CN(Cc1ccc(Cl)s1)C(=O)CNC(=O)CNC(=O)c1ccc(Cl)cc1Cl

>  <readout type>
inhibition

>  <display unit>
%

>  <endpoint value>
0.015

$$$$
>  <molecule>
O=C(CC12CC3CC(CC(Br)(C3)C1)C2)Nc1cccc(S(=O)(=O)NC2=NCCC2)c1

>  <readout type>
inhibition

>  <display unit>
%

>  <endpoint value>
7.59

$$$$
>  <molecule>
O=C(Nc1ccccc1)N1CCC(O)(c2cccc(C(F)(F)F)c2)CC1

>  <readout type>
inhibition

>  <display unit>
%

>  <endpoint value>
1.21

$$$$
>  <molecule>
CCOC(=O)c1c(NC(=O)c2cc3n(n2)C(C(F)(F)F)CC(c2ccccc2)N3)sc(C)c1C (configuration not stated)

>  <readout type>
inhibition

>  <display unit>
%

>  <endpoint value>
-4.24

$$$$
>  <molecule>
Cc1ccn2c(NC3CCCCC3)c(-c3cccc(SC4CCCCC4)c3)nc2c1

>  <readout type>
inhibition

>  <display unit>
%

>  <endpoint value>
48.6

$$$$
>  <molecule>
c1ccc(-c2cn3c(n2)CCC3)cc1

>  <readout type>
inhibition

>  <display unit>
%

>  <endpoint value>
-1.06

$$$$
>  <molecule>
CCn1c(SC(C)C(=O)N2CCOCC2)nc2sc(C)c(C)c2c1=O (configuration not stated)

>  <readout type>
inhibition

>  <display unit>
%

>  <endpoint value>
-0.24

$$$$
>  <molecule>
COCCn1c(O)c(/C=N/NC(=O)CSC(=S)N2CCCC2)c(=O)[nH]c1=S

>  <readout type>
inhibition

>  <display unit>
%

>  <endpoint value>
-6.24

$$$$
>  <molecule>
Cc1nc2ccccn2c1P(=Nc1ccccc1)(N(C)C)N(C)C

>  <readout type>
inhibition

>  <display unit>
%

>  <endpoint value>
-7.51

$$$$

QUERY: Consider the molecule CN1CCN(C(=S)c2ccc(N(C)C)cc2)CC1 and give its measured inhibition.
RESULT: -4.96

====

experiment: M. tuberculosis growth inhibition, HTS (AID 449762);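 also: bacterial growth assessed after seven days of incubation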; conditions: M. tuberculosis H37Rv growth inhibition, 7H9 media; at 25 µM; active compounds read high
Among all 330,000 compounds or so, about 1,900 (0.58%) were called active. Not shown: some 4% with an inconclusive outcome. These entries were drawn from the full list. Measured potencies and affinities stand elsewhere.
readout type: inhibition (%)
Could you give me the number in %? Just the number is fine.

>  <compound>
Oc1ccc2ccccc2c1/C=N/c1nccs1

>  <endpoint value>
0.82

$$$$
>  <compound>
Oc1ccc2ccccc2c1N=Nc1ccccc1F

>  <endpoint value>
-3.05

$$$$
>  <compound>
O=C(NCC(=O)N1CCN(c2ccccc2O)CC1)c1ccccc1

>  <endpoint value>
7.74

$$$$
>  <compound>
C=CCOc1cccc(C2C(C(=O)c3ccco3)=C(O)C(=O)N2CCN(CC)CC)c1 (stereo unspecified)

>  <endpoint value>
-1.23

$$$$
>  <compound>
COc1ccc(OC)c(C(=O)NC2CC(C)(C)Cc3c2cnn3-c2ccccc2)c1 (stereo unspecified)

>  <endpoint value>
12.2

$$$$
>  <compound>
O=C1[C@@H]2Cc3c([nH]c4ccccc34)CN2C(=O)CN1CCCCCO

>  <endpoint value>
-3.43

$$$$

QUERY: Consider the compound Cc1cc(Cc2c(O)[nH]c(=S)[nH]c2=O)ccc1OC(C)C and give its measured inhibition.
RESULT: -6.7

QUERY: Same again, this time with CCNCC(=O)N1c2ccccc2CCc2ccc(NC(=O)OCC)cc21
RESULT: 8.22

QUERY: Same again, this time with CCOc1ccc(NCc2nc3ccccc3n2CCOc2ccccc2)cc1
RESULT: 33.8

QUERY: Same again, this time with COc1ccc(-c2nnc(SCc3ccc(C(=O)O)cc3)n2C)cc1OC
RESULT: 2.72

QUERY: Same again, this time with Cc1ccc(C)c(-c2csc(NC(=O)C3=COCCO3)n2)c1
RESULT: 65

The reported numbers originate from PubChem BioAssay AID449762.
